B1: TPR 5TU (parent)
chain: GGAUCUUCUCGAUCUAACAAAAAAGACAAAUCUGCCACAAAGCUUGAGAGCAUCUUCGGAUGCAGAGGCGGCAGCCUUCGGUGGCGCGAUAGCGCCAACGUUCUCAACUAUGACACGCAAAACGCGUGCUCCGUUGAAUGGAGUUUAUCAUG

Variants of: B1
Assay: polymerase ribozyme fitness, log enrichment relative to wild type (log ratio); higher = more active; in vitro selection for triplet polymerase activity
This sample holds only a part of the variants without activity.

{"columns": ["MUT", "OPERATOR", "polymerase ribozyme fitness (log ratio)"],
 "data": [
  ["A16C A21C C57A G88U C103G U130G", "≤", -4.2],
  ["U15C A22G G42A G84A G133U", "≤", -4.2],
  ["C75U U90C A91U C93G G94U A98C", "≤", -4.2],
  ["C5G U55G C85U C99A", "=", -2.86],
  ["G11C C14U A37C C93U", "≤", -4.2],
  ["U77C A91U U146A", "≤", -4.2],
  ["A16G C43A U55A G80C G117U G133C", "≤", -4.2],
  ["A12U G50U C72U G126A", "=", -1.33],
  ["C27A U33C C85A A106G U144A U151C", "≤", -4.2],
  ["U7A A20U U31G C116U", "=", -3.58],
  ["A40C C85U C95U A98G G126U", "=", -1.37],
  ["C114A U139G", "=", -2.32],
  ["A16G C54U C76A C93U A97G C103U C123U G128C", "≤", -4.2],
  ["C5G U45G U55G G86U C87A A91U", "≤", -4.2],
  ["A28C", "=", -3.75],
  ["A24U A47C G86A G94C C118U A137G", "≤", -4.2],
  ["A12C A19C A122G U146C", "=", -1.62],
  ["G84A G94A A98C G124A", "=", -0.811],
  ["C8U C43U C85U G100A A142U", "≤", -4.2],
  ["G58C G83A G84U G92U U135A U139G G141A", "≤", -4.2],
  ["A40U C85A U144A", "=", -0.577],
  ["U56A G83U C93G", "≤", -4.2]
]}

src = the RNAGym collection of RNA variant scans (doi:10.1073/pnas.2313332121)
